Taken from paper PMC11822212.

- Tested on: VP-MCC cell lines (WAGA, MKL-1, MKL-2)
- TEST DETAILS: qHTS cell viability, VP-MCC cell lines as a group (mean AUC, VP.MCC.avg)
- Format: cell-based, human
- CONDITION DETAILS: NPC library; therapeutic window: Control avg AUC minus VP-MCC avg AUC
Exercise: for every item that follows, state its recorded Control-VP-MCC.
One number for each entry.

Solved cases below.
[[record]]
compound = "Cl.Cl.Fc1ccc(C(OCCN2CCN(CCCc3ccccc3)CC2)c2ccc(F)cc2)cc1 [GBR 12909 dihydrochloride]"
tested_target = "VP-MCC cell lines (WAGA, MKL-1, MKL-2)"
value_reported = 51.7231

[[record]]
compound = "[H]/N=C(/NCCCCC)N/N=C/c1c[nH]c2ccc(OC)cc12"
tested_target = "VP-MCC cell lines (WAGA, MKL-1, MKL-2)"
value_reported = 156.909

[[record]]
compound = "O=C(N/N=C/c1ccccc1O)c1ccncc1"
tested_target = "VP-MCC cell lines (WAGA, MKL-1, MKL-2)"
value_reported = 91.9801


Next item in the queue.
The reported value for CCCCCCC[N+](CC)(CC)CCCCc1ccc(Cl)cc1.Cc1ccc(S(=O)(=O)[O-])cc1 [Clofilium tosylate] in terms of Control-VP-MCC is 109.618

* * *

- Tested on: HEK293T cells
- TEST DETAILS: qHTS cell viability (CellTiter-Glo, 72 h; primary screen), control cell line
- Format: cell-based, human
- CONDITION DETAILS: NPC library; qHTS dose-response AUC, HEK293T control
Where a name gives a salt, the structure may show the parent alone.
QUANTITY MEASURED: HEK293T_AUC
One number for each entry.

Solved cases below.
[[record]]
compound = "Cc1ccsc1C(=CCCN1CCC[C@@H](C(=O)O)C1)c1sccc1C [Tiagabine hydrochloride]"
value_reported = 447.539

[[record]]
compound = "Cn1c(=O)c2c(ncn2CCO)n(C)c1=O"
value_reported = 445.08

[[record]]
compound = "OCCN1CCN(CCCN2c3ccccc3Sc3ccc(C(F)(F)F)cc32)CC1"
value_reported = 438.571

[[record]]
compound = "CC[N+](CC)(CC)CCOC(=O)C(C1CCCC1)C1CCCC1 [Diponium bromide]"
value_reported = 472.065

[[record]]
compound = "C[C@@H]1CN(CCCn2c3ccccc3c3ccccc32)C[C@H](C)N1.Cl.Cl [Rimcazole dihydrochloride]"
value_reported = 453.163

[[record]]
compound = "Cl.Cl.Fc1ccc(C(OCCN2CCN(CCCc3ccccc3)CC2)c2ccc(F)cc2)cc1 [GBR 12909 dihydrochloride]"
value_reported = 425.616

[[record]]
compound = "COc1cc(/C=C2\\CCC/C(=C\\c3ccc(O)c(OC)c3)C2=O)ccc1O"
value_reported = 422.832

[[record]]
compound = "CC1=C(C)C(=O)C(CCCCC#CCCCC#CCO)=C(C)C1=O"
value_reported = 450.348

[[record]]
compound = "O=C(CCN1CCC(c2ccccc2)C1)c1ccc2c(c1)OCCO2 (centres unmarked)"
value_reported = 432.979

[[record]]
compound = "CCCC(C(=O)OCCN(CC)CC)(c1ccccc1)c1ccccc1 [Proadifen hydrochloride]"
value_reported = 426.534


For each listed entry, give its HEK293T_AUC.
1. CCCCOc1ccc(C(=O)CCN2CCCCC2)cc1 [Dyclonine hydrochloride]
2. CN(CC1(C)CCCO1)S(=O)(=O)c1ccc(Cl)c(S(N)(=O)=O)c1 (centres unmarked) [Mefruside]
3. CCCCC(CC)CNC(=N)NC(=N)NCCCCCCNC(=N)NC(=N)NCC(CC)CCCC (centres unmarked) [Alexidine dihydrochloride]
4. CCCCCCCCCCCCCCCC[N+](C)(C)CC [Ethylhexadecyldimethylammonium bromide]
5. C#C[C@]1(OC(C)=O)CC[C@H]2[C@@H]3CCC4=CC(=NO)CC[C@@H]4[C@H]3CC[C@@]21CC (mixture of isomers) [Norgestimate]
6. CC[C@@]1(O)C(=O)OCc2c1cc1n(c2=O)Cc2cc3c(CN(C)C)c(O)ccc3nc2-1 [Topotecan HCl]
7. Clc1ccc(C(Cn2ccnc2)OCc2ccsc2Cl)c(Cl)c1 (centres unmarked)

[out]
1. 441.492
2. 446.841
3. 380.139
4. 340.309
5. 418.545
6. 225.562
7. 456.797

* * *

- TEST DETAILS: qHTS cell viability (CellTiter-Glo, 72 h; primary screen), control cell line
- Format: cell-based
- CONDITION DETAILS: human, CRL-7250 cells (control cell line); CRL-7250, Log (M) -4.81358; read-out: Percent viability
QUANTITY MEASURED: viability at 72 h, 15.4 µM (%)
Give bare numbers, in %.

The reported value for COCCn1c2c([n+](Cc3cnccn3)c1C)C(=O)c1ccccc1C2=O [sepantronium bromide, reference compound] in terms of viability at 72 h, 15.4 µM is 10.1

* * *

- TEST DETAILS: qHTS cell viability (CellTiter-Glo, 72 h; primary screen), control cell line
- Type: cell-based, human
- CONDITION DETAILS: human, HACAT cells (control cell line); HACAT, Log (M) -6.72207; read-out: Percent viability
QUANTITY MEASURED: viability at 72 h, 190 nM (%)
Answers are plain numbers, in %.

The reported value for COCCn1c2c([n+](Cc3cnccn3)c1C)C(=O)c1ccccc1C2=O [sepantronium bromide, reference compound] in terms of viability at 72 h, 190 nM is 35.1

* * *

- Test system: VN-MCC cell lines (MCC13, MCC26, UISO)
- TEST DETAILS: qHTS cell viability, VN-MCC cell lines as a group (mean AUC, VN.MCC.avg)
- Type: cell-based, human
QUANTITY MEASURED: VN-MCC_Avg_AUC

[[record]]
compound = "CCCN(CCC)CCc1c[nH]c2ccccc12.Cl [N,N-Dipropyltryptamine hydrochloride]"
tested_target = "VN-MCC cell lines (MCC13, MCC26, UISO)"
value_reported = 431.8


For each listed entry, give its VN-MCC_Avg_AUC.
1. C[C@H](CN1CCOCC1)C(C(=O)N1CCCC1)(c1ccccc1)c1ccccc1.O=C(O)C(O)C(O)C(=O)O [Dextromoramide tartrate]
2. CN(C)CCc1c[nH]c2ccc(O)cc12 [Bufotenine]

[out]
1. 445.614
2. 429.178

For each listed entry, give its VN-MCC_Avg_AUC.
1. CC(=O)OC1(c2ccccc2)CCN(CCc2ccccc2)CC1
2. N[C@@H](Cc1ccc(N(CCCl)CCCl)cc1)C(=O)O [Melphalan]
3. CNC(C)Cc1ccc2c(c1)OCO2.Cl (stereo not drawn)

[out]
1: 409.79; 2: 446.303; 3: 436.031

* * *

- System: MKL-1 cells (VP-MCC)
- TEST DETAILS: qHTS cell viability (CellTiter-Glo, 72 h; primary and follow-up small molecule screen)
- Format: cell-based, human
- CONDITION DETAILS: MKL1, 72h, Log (M) -8.67631
Exercise: for every item that follows, state its recorded Percent viability.
One number for each entry, in %.

[[record]]
compound = "CCS(=O)(=O)c1cccc(-c2cc(C(=O)NC3CCN(C)CC3)c(C)c3[nH]c4ncc(C)cc4c23)c1 [TAK-901, reference compound]"
tested_target = "MKL-1 cells (VP-MCC)"
unit_abbrev = "%"
value_reported = 102.5


For each listed entry, give its Percent viability.
1. CCn1cc(-c2ccnc3[nH]c(-c4cccc(CN(C)C)c4)cc23)c(-c2ccc(NC(=O)N(C)C)cc2)n1 [GSK-1070916A, reference compound]
2. Cc1cc(Nc2cc(N3CCN(C)CC3)nc(Sc3ccc(NC(=O)C4CC4)cc3)n2)[nH]n1 [Tozasertib, reference compound]
3. O=C(Nc1cccc(Cl)c1)Nc1ncc(CCNc2ncnc3ccsc23)s1 [SNS-314, reference compound]

[out]
60.3
103.8
100.9

* * *

- Test system: UISO cells (VN-MCC)
- TEST DETAILS: qHTS cell viability (CellTiter-Glo, 72 h; primary and follow-up small molecule screen)
- Type: cell-based, human
- CONDITION DETAILS: follow-up screen; UISO; replicate 2
Where a name gives a salt, the structure may show the parent alone.
QUANTITY MEASURED: Area under the dose-response curve (AUC) UISO Replicate 2
Give bare numbers.

Solved cases below.
[[record]]
molecule = "CN1CCCC(n2nc(Cc3ccc(Cl)cc3)c3ccccc3c2=O)CC1 (stereo not shown) [Azelastine hydrochloride]"
value_reported = 488.6

[[record]]
molecule = "O=C(CCCN1CCC(O)(c2ccc(Br)cc2)CC1)c1ccc(F)cc1 [Bromperidol]"
value_reported = 471.4

[[record]]
molecule = "[O-][n+]1ccccc1SSc1cccc[n+]1[O-] [Dipyrithione]"
value_reported = 283.0


Next item in the queue.
The reported value for C[C@H]1CCC/C=C/[C@@H]2C[C@H](O)C[C@H]2[C@H](O)/C=C/C(=O)O1 [Cyanein] in terms of Area under the dose-response curve (AUC) UISO Replicate 2 is 227.9
